List of ability of recombinant RTK ligand to confer resistance values.
# Tested on: six V600E BRAF melanoma cell lines
# PROTOCOL: Screening of recombinant RTK ligands for ability to confer resistance to BRAFi (PLX4720) or MEKi (PD184352) (Table 4)
# Format: cell-based, human
# Design: scale not given here
# CONDITION_SUMMARY: Colo 829, PD184352 - 1 uM, ligand 1.6 ng/ml
Returns: the value as a bare number; no unit string appended.

// solved cases for ability of recombinant RTK ligand to confer resistance follow
MOLECULE	RESULT_VALUE
Ephrin-A4 (protein, UniProt P52798 26-170, looked up) Ephrin-A4: LRHVVYWNSSNPRLLRGDAVVELGLNDYLDIVCPHYEGPGPPEGPETFALYMVDWPGYESCQAEGPRAYKRWVCSLPFGHVQFSEKIQRFTPFSLGFEFLPGETYYYISVPTPESSGQCLRLQVSVCCKERKSESAHPVGSPGES	1.08
flt-3 ligand (FL) (protein, UniProt P49771 27-235, looked up) Fms-related tyrosine kinase 3 …: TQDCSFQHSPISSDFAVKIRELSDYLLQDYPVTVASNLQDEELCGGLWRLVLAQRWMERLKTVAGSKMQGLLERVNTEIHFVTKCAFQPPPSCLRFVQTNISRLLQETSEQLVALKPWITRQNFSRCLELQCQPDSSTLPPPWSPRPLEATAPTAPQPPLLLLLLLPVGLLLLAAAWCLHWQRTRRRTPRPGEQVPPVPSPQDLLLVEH	0.98

Please look at the following molecule next.
IN: Entry under review: GDNF (protein, UniProt P39905 78-211, looked up) Glial cell line-derived …: SPDKQMAVLPRRERNRQAAAANPENSRGKGRRGQRGKNRGCVLTAIHLNVTDLGLGYETKEELIFRYCSGSCDAAETTYDKILKNLSRNRRLVSDKVGQACCRPIAFDDDLSFLDDNLVYHILRKHSAKRCGCI . Reported ability of recombinant RTK ligand to confer resistance?
OUT: 0.96

Where these numbers come from: patent US20140348819A1
